The reported numbers originate from ChEMBL document CHEMBL1201862.

Below are GI50 values measured for HCT-15.
# number only, unit µM dropped from output

1. Cc1cc(N(CCC#N)CCC#N)ccc1/C=C1\N=C(c2cc([N+](=O)[O-])ccc2Cl)N(NC(=O)c2ccc(/N=C\c3ccc(N(CCC#N)S(C)(=O)=O)cc3C)cc2)C1=O: 33
2. CCOc1cc(C2SCC(=O)N2c2ccc3c(c2)Oc2c(Cl)c4c(c(Cl)c2=N3)Oc2cc(N3C(=O)CSC3c3ccc(O)c(OCC)c3)ccc2N=4)ccc1O (centres undefined): 43.1
3. NN=C(S)Nc1cccc(Cl)c1: 48.2
4. C[C@]12CC[C@H](O)C=C1CC[C@@H]1[C@@H]2CC[C@]2(C)C(=N/O)/C(=C/c3ccncc3)C[C@@H]12: 5.19

Asked: Identify the measured GI50 of FC(F)(F)c1ccc2c(c1)nc1n2C(c2c(Cl)cccc2Cl)SC1 (centres undefined) for HCT-15.
Given back: 21.6

====

System: HT-29
test.name: NCI tumour cell line growth inhibition, 48 h
Calls of active or inactive are those of the source. Rule as the data show it: active = GI50 up to about 1.1 µM and inactive = higher.
Assign a class; possible classes are active, inactive

Previously resolved entries follow.
1) CC(C)[C@H]1CO[C@@H]2O[C@H](C)CC(=O)N21: inactive
2) CC(C)(C)OC(=O)N1CCC2(CC1)C(=O)NCN2c1ccccc1: inactive
3) Cc1c2cc[n+](C)cc2c(C)c2c1[nH]c1ccccc12: inactive

Asked: Fill in: this test's call for `Cc1c[nH]c(C(=O)O)c1-c1cccn1-c1ccc(Cl)cc1[N+](=O)[O-]` is ___
Given back: inactive

Asked: Fill in: this test's call for `COc1cc2c(cc1OCc1ccccc1)NC(=O)[C@@H]1CCCN1C2=O` is ___
Given back: inactive

Asked: Fill in: this test's call for `Cn1c(=O)c2[nH]c(/N=N/N3CCN(CCO)CC3)nc2n(C)c1=O` is ___
Given back: inactive

====

Tested on: COLO 205
test.name: NCI tumour cell line growth inhibition, 48 h
Calls of active or inactive are those of the source. Rule as the data show it: active = GI50 up to about 1.1 µM and inactive = higher.
Assign a class; possible classes are active, inactive

Previously resolved entries follow.
1) COc1ccc2c(c1)OC[C@@H]1c3cc(O)c(OCc4ccccc4)cc3O[C@H]21: inactive
2) Oc1ccc(-c2n[nH]c(S)n2)cc1: inactive
3) O=C1C=CC(=O)c2c1cc1ccccc1c2O: inactive

Asked: Fill in: this test's call for `CCOC(=O)c1cn2c(n1)sc1cc(Cl)cc(Cl)c12` is ___
Given back: inactive

Asked: Fill in: this test's call for O=C1CC(=O)NC(NN2C(=O)CSC2c2ccccc2)=N1 (configuration not stated) is ___
Given back: inactive

Asked: Fill in: this test's call for Cc1ccc(C2(O)c3ccccc3C(=O)N(C)C2(O)c2ccc(C)cc2)cc1 (configuration not stated) is ___
Given back: inactive

Asked: Fill in: this test's call for COC(=O)C1=Cc2cc(OC)c(OC)cc2[C@H](c2ccc(OC)c(OC)c2)C1C(=O)OC (some centres not stated) is ___
Given back: inactive

Asked: Fill in: this test's call for `Nn1c(S)nnc1COc1cccc(OCc2nnc(S)n2N)c1` is ___
Given back: inactive

Asked: Fill in: this test's call for `Cc1ccc(/C=C(\NC(=O)c2ccccc2)c2nc3ccccc3[nH]2)cc1` is ___
Given back: inactive

Asked: Fill in: this test's call for CNC(C)Cc1ccccc1O (configuration not stated) is ___
Given back: inactive

Asked: Fill in: this test's call for `COC(=O)C1=C(C(=O)OC)SC(=C2S[C@@H]3[C@@H]4C[C@H]([C@@H]3S2)[C@H]2C(=O)OC(=O)[C@@H]42)S1` is ___
Given back: inactive

Asked: Fill in: this test's call for `Cc1oc2c(Cl)cc(O)c(Cl)c2c2cccc1-2` is ___
Given back: inactive

Asked: Fill in: this test's call for `CC(=N/NC(=S)N1CCCCC1)/C(=N\NC(=S)N1CCCCC1)c1ccccc1` is ___
Given back: inactive

Asked: Fill in: this test's call for `COc1ccc2c(Cc3c4ccccc4cc4ccccc34)cncc2c1O` is ___
Given back: inactive

Asked: Fill in: this test's call for `COC1(OC)CC(CO)(COc2cc(Cl)nc(N)n2)C1` is ___
Given back: inactive

====

System: BT-549
test.name: NCI tumour cell line growth inhibition, 48 h
Activity calls are given as the source filed them. Rule as the data show it: active = GI50 up to about 1.1 µM and inactive = higher.
readout.kind: GI50

1. N=C(N)NCC(N)C(=O)O (stereo unspecified): > 100 µM (inactive)
2. C[N+](C)(C)c1ncnc2c1ncn2C1CC(O)C(CO)O1 (stereo unspecified): > 100 µM (inactive)

Asked: Endpoint output: GI50 of COC(=O)C1=C(C)NC(C)=C([N+](=O)[O-])C1c1cccc(NO)c1 (stereo unspecified) . Value?
Given back: 4.51 µM (inactive)

Asked: Endpoint output: GI50 of `C[C@]12CC[C@H](O)C=C1CC[C@@H]1[C@@H]2CC[C@]2(C)C(=N/O)/C(=C/c3ccncc3)C[C@@H]12` . Value?
Given back: 20 µM (inactive)

Asked: Endpoint output: GI50 of COC(=O)C1=CO[C@@H](OC2OC(CO)C(O)C(O)C2O)[C@@H]2[C@H](C)[C@@H](O)[C@@H](O)[C@]12O (stereo partly specified) . Value?
Given back: > 100 µM (inactive)

Asked: Endpoint output: GI50 of COC(=O)C1c2cc3c(c(O)c2C(O)CC1(C)O)C(=O)c1c(O)cc2c(c1C3=O)OC1OC2(C)C(O)C(N(C)C)C1O (stereo unspecified) . Value?
Given back: 4.9 µM (inactive)

Asked: Endpoint output: GI50 of `CC(=O)c1[nH]c(Nc2ccc(C)cc2)c(C(=S)Nc2ccccc2)c1N` . Value?
Given back: 15.6 µM (inactive)

====

System: HCC 2998
test.name: NCI tumour cell line growth inhibition, 48 h
Activity calls are given as the source filed them. Cut-off read from the data, not from the text of the source: active = GI50 up to about 1.1 µM and inactive = higher.
Listed here: items and their measured GI50.

1. COc1cc(S(=O)(=O)Nc2ccc(-c3csc(N4C(=O)C(Cl)C4c4ccccc4O)n3)cc2)ccc1Cl (centres undefined): 15.1 µM (inactive)

// moving on: another record for GI50
Asked: Endpoint output: GI50 of `Clc1ccc(CCn2ccc3ccccc32)c(Cl)c1` . Value?
Given back: > 100 µM (inactive)

====

Tested on: OVCAR-8
test.name: NCI tumour cell line growth inhibition, 48 h
Calls of active or inactive are those of the source. Rule as the data show it: active = GI50 up to about 1.1 µM and inactive = higher.
Assign a class; possible classes are active, inactive

Previously resolved entries follow.
1) Cc1c2c(cc3c1[nH]c1ccccc13)C(c1ccc(Cl)cc1)=NCC2: active
2) c1ccc2c(c1)OC(N1CCCC1)c1cnc(N3CCOCC3)nc1-2 (stereo unspecified): inactive
3) Nc1nc(SCc2ccccc2[N+](=O)[O-])c2[nH]cnc2n1: inactive
4) N#C/C(=C\c1ccc2ccccc2c1)c1ccccc1: inactive
5) Cc1cc(/N=C/c2c(CO)cnc(C)c2O)c(/N=C/c2c(CO)cnc(C)c2O)cc1C.[Zn+2]: inactive

Asked: Fill in: this test's call for `CC1(C)C(=O)C(C)(C)C12SSC1(S2)C(C)(C)C(=O)C1(C)C` is ___
Given back: inactive

Asked: Fill in: this test's call for COC(=O)CC1(O)C(/C=C/c2ccccc2)C(C(=O)OC)C(=O)C(C(=O)OC)C1C(=O)OC (stereo unspecified) is ___
Given back: inactive

====

System: SK-MEL-28
test.name: NCI tumour cell line growth inhibition, 48 h
Activity calls are given as the source filed them. Cut-off read from the data, not from the text of the source: active = GI50 up to about 1.1 µM and inactive = higher. *1 amine or outer side, *2 acyl side, *3 side chain or, on linkers, in order; H or OH if unused. Where a SMILES comes first, the peptide text is derived from it. Bridges are numbered along the chain shown (N, C = ends). Roman numbers before positions name the chains, in order. [ ]: non-standard residue; d: D form. Actinocin(9to1) = Cc1c2oc3c(C)ccc(C(=O)[*:1])c3nc-2c(C(=O)[*:2])c(N)c1=O; NMeV = CN[CH](C(=O)O)C(C)C; Sar = CNCC(=O)O
Assign a class; possible classes are 1 for active, -1 for inactive

Previously resolved entries follow.
1) COc1ccc(/C=C/c2cnc3ccccc3n2)cc1OC: -1
2) COC(=O)C1C(O)CCC2CN3CCc4c([nH]c5ccccc45)C3CC21 (stereo not drawn): -1
3) COc1cc(=O)oc(/C=C/C=O)c1C: -1

Asked: Fill in: this test's call for `CC(=O)OCCn1cnc2nc(Nc3ccccc3)nc(Cl)c21` is ___
Given back: -1

Asked: Fill in: this test's call for CC12C3C4C1C1C2C3C41CO (stereo not drawn) is ___
Given back: -1

Asked: Fill in: this test's call for Cc1c2oc3c(C)ccc(C(=O)NC4C(=O)NC(C(C)O)C(=O)N5CCCC5C(=O)N(C)CC(=O)N(C)C(C(C)C)C(=O)OC4C)c3nc-2c(C(=O)NC2C(=O)NC(C(C)O)C(=O)N3CCCC3C(=O)N(C)CC(=O)N(C)C(C(C)C)C(=O)OC2C)c(N)c1=O (stereo not drawn) (I: TTP[Sar][NMeV] / II: TTP[Sar][NMeV]; ester I:1-I:C, II:1-II:C; linker I:N-II:N via Actinocin(9to1); configuration not given here) is ___
Given back: 1

Asked: Fill in: this test's call for `Cc1cc2ccccc2c[n+]1CC(O)C[n+]1cc2ccccc2cc1C` is ___
Given back: -1

Asked: Fill in: this test's call for `CCC(CC)n1c(C)nc2c1C(=O)c1ccccc1C2=O` is ___
Given back: -1
